molecular target: Full length human CD40 (huCD40) on cells (human, UniProt P25942 21-277); assay: cell-based or functional assay
Sequence (P25942 21-277): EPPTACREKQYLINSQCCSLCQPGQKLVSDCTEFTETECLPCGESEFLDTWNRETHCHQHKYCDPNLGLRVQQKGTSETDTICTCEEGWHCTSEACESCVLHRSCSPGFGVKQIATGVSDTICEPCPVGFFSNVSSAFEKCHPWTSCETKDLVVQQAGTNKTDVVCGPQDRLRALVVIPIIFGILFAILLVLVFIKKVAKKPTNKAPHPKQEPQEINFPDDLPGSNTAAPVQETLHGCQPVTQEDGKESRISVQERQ
observation-type: DC EC50, CD80 surface expression, with cross-linker (µg/mL)
Answer in µg/mL, number only, no unit symbol.

Data request: Dear colleague, I am looking for the recorded DC EC50, CD80 surface expression, with cross-linker of the following binder: C40M9 (antibody, human IgG1, lambda, V domains shown) VH: QLQLQESGPGLVKPSEILSLTCTVSGGSISSSSYYWGWIRQPPGKGLEWIGNIYYRGDTYYSPSLKSRVTISVDTSKNQFSLKLNSVTAADTAVYYCAKGFRFDYWGQGTLVTVSS VL: QSALTQPPSASGSPGQSVTISCTGTSSDVGGYNYVSWYQQHPGKAPKLMIYEVSKRPSGVPDRFSGSKSGNTASLTVSGLQAEDEADYYCSSYAGSNNLVFGGGTKLTVLG
Data returned: 0.0277
